Source listed as the domain aggregation screens of Martell et al. (2025).

Assay: soluble fraction after stress (log2 fold change); higher = more stays soluble; pooled small domains, quantitative proteomics;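 also: 20 min heating vs room temperature control held 20 min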
Conditions: stress: 75 degC
So basically every entry gets a class from its soluble fraction (log2), ranges being L (below -1), M (-1 to below -0.1), H (-0.1 or more)

Worked set:
sequence.record: HMATIADILAEHKDKEGPLLPVLHDVQKMFGHVSEEAMREIAQALNLTRAEVYGVVSFYHDFRKEVE
qualitative.label: L
--
sequence.record: HMKELVEDFASRISNARQSKGWNQSELAKRMAETVNVVKSAESGKSPTDSVIKKLERVLGIILM
qualitative.label: M
--
sequence.record: HMSLIDYLNELMNEKNITVAQVAKNSGIGEYVYKIFNGERNAKRDTLVAISFGMHLNFEETQLLLRIA
qualitative.label: L
--
sequence.record: HMQILVEGVEANQRLDLFLRARLTEFSRSRIQGLVKNGNVLVNGNIARQAYLVQVGDKIELDVPEPVA
qualitative.label: M
--
sequence.record: HMTRRVIRAPAAGIMRSNVKLGDLVKEGDVIAWIGEHEIKAPLTGMVRGLLNDGLAVVGGFKIGDI
qualitative.label: H
--
sequence.record: HMRVNINVSENILDWVMKRVNPSVLSSKQGELLYAWKEGRKVPTYNQIEKMSKVTGIPLGYFFLEKPPVE
qualitative.label: L
--
sequence.record: HMPTTTFENLPDAKKKTIIAALLKEFSQSPLSKAQVAPIVKESQIARGAFYKYFVDLTDAYTYLYRQ
qualitative.label: H
--
sequence.record: HMATTAGIEKYLGSGLIKGIGPIYAKKIVRKFKEDTIRIIDEEPDRLLEVEGIGQKRLEIIKQAWQQQKE
qualitative.label: M

Now, please, on to the next sequence.
Ask: Place this sequence in its band: `HMFDNPLSERDKEILNHISMGKSNKEIANQVGLAEQTIKNTISVILDKTFTSNRAQAASMATKNKW`
Result: H

====

Assay: soluble fraction after stress (log2 fold change); higher = more stays soluble; pooled small domains, quantitative proteomics
Conditions: stress: 75 degC
assay.readout: soluble fraction (log2)
Give bare numbers.

Example entries begin here.
sequence.record: HMFVEEGSLKKITFDTYEFNITDNLKSLRVTYQGLLPNLFREGQGVVIEGILLEQNYIQANTVF
assay.readout: soluble fraction (log2)
value.measured: 0.249
--
sequence.record: HMTNEWRKILSNLNGKYQIVMELFYVDGFSTKEIARMLHITEVNVRSRMVRGRKQLEQILTVR
assay.readout: soluble fraction (log2)
value.measured: -0.0301
--
sequence.record: HMRESPYRRVAKFLLLIGTAEAAKIVSRLDQDQVEKVMLELSGIRSVPRDEATVILAEFESLLQQAR
assay.readout: soluble fraction (log2)
value.measured: -2.03
--
sequence.record: HMTLSDIGHAVRTRRTELGLSQVQLARLSGLSRQTLVGLENGTLNDLGINRVAQLLAVLGLDAP
assay.readout: soluble fraction (log2)
value.measured: -2.02
--
sequence.record: HMSSDEAEYKLLLGQEGVAKSPLRPSGVVDFSGRRLDVQTLGDFIESGETVVVKQVNGHRVLVERK
assay.readout: soluble fraction (log2)
value.measured: 0.135
--
sequence.record: HMAMTNEEREALISEIKQTVNNSIDLKKDISDTEIKEAITQAVFERSEKSYLSIAEKQDIITAVFNSMR
assay.readout: soluble fraction (log2)
value.measured: 0.378
--
sequence.record: HMPAELGVVVRNANLRSGPGTKYAIVGSAPAGTTVRIAGTNKAGDWYHLSSGRWIAAFLVDRN
assay.readout: soluble fraction (log2)
value.measured: -1.99
--
sequence.record: HMLNPMILLTKGGENIRLDKFLSSHLSDLSRTQIQKMVKEGLVLVNGEPSKVGLKLDGSETIQYTLPK
assay.readout: soluble fraction (log2)
value.measured: -0.18
--
sequence.record: HMDAAYVYVIGTRVNQRAGPSTSNAVMGVLSEGTRVETLRDEGQWTQIRSNFGTGWMSSSFLSSVAP
assay.readout: soluble fraction (log2)
value.measured: -1.28
--
sequence.record: HMHFIMEYRIRAYVDELFESAPRTQRAYELKIELTQNLIDKYYALVSEGKSEQDAYNLTVMSIGDVREL
assay.readout: soluble fraction (log2)
value.measured: -3.01

Batch: soluble fraction (log2) for all items listed.
1. HMSMFTPAQVAQTLTVPPSTLRRWAKRFAPFLSPQSGKKRTYTVADLDTFQRIKELSAQGYTFAQIDQAL
2. HMPLITAIELDSISARSFQFNTQSGSTYFIEGSTDLKSWDVIAEVKATDSTTTYEDHRKIYHEAYFYRVRL

Result:
-1.32
-1.84

Batch: soluble fraction (log2) for all items listed.
1. HMKPGNFILDLLRTYGQKGTSAQNLMSSSRMFNFSENLIRVTLSRLAARGLIENFERGHYRLAE
2. HMPVFSLTPRELEILEWMSTPNTYRQIAAQLSVSEETVRSHAKNILEKMRQPNRAQAVLAAVKMGLIKL
3. HMDNWYIAFNSFLSQNKLTAKNVSELTGLSKPTIDSYKQGKRKPTDENMQIIKDKLGFNISEILYN
4. HMNASITVPDVRNLTVKQASEQLLASGFTPIPYAATKDGVGNDIVYAQDPPPSVLARSGDQITITYNPA
5. HMNLFKAPMPGLIRTIVVAEGQEVKKGDVILILEAMKMENALKSPADLVVKSIKVQQGQAVEKNQLLIEF
6. HMSIESMVGRFGVVTKDVVANEMAGKVKVGREEFRATADIAVSSGTKVKVTHAEGITLTVVPE
7. HMKNNITFSEFLHEVDNGRVIKVNIQGNNITGILADGKSFNTYTPNDPSLIEKLTSKGVSISATPI

Result:
-0.488
-1.57
-0.0615
0.0994
-2.44
0.611
0.13

Batch: soluble fraction (log2) for all items listed.
1. HMKSIPKIKWNSTLENIKNFEYQDNFFESKEMYDLLVSFYKYGFVIIKNIPTNNNFIVKFANSIGS
2. HMNILVAISDTGEIWINKRRVDARAVQANIERLHAENPQGTVVIQADKQATTETLIKVMDASRAAGVFDVS
3. HMSAEVMLRRLIDENDPSSENARYILAVMLERKKILAPVDVKNEKKSKMLFYEHQKTGEAFIVRDP
4. HMGKKYVPGMAVKLSAVPLYAASTSKVPSTHVTGTYYLWDDEVVRGRLRITNLKSRVGISGQVTGWIDKDR

Result:
[0.0519, -0.691, -0.0597, -1.95]

Batch: soluble fraction (log2) for all items listed.
1. HMEFLLAIQPFVLLTDHANLTFLREQTDSMMKRIQINISGFEIEFRYVPGLTNILPDKMSRV
2. HMSSVHTMEVKSTTQIKVLDENKNLSSYYSMKNPVSFNYRLFFLNQDELKKLQEDLKTNNDIQSIDIKYA
3. HMARKFQKDTGYLNKKERTWLLDFFPSLKKYLYTGAYIRSIIVVESNVTYTDKELPSNYTFTYKFA
4. HMWKSEAGKKIIESLAQKYNKSNAQIILRWHIQMGYIVIPGARSENHIKENINIFDFKLTNEEINNILKLN
5. HMVSVEINTVERDETFRKMFTSGWKPENRIQALAVEQAKKNGLGRMSEVAGLASFRGIWKQATEQVALEA
6. HMLSTQEYIKKNIENGSWKVGEKIPSENNLTEILGVSRASIRVAIQQFIALDVLNSIHGKGTFVKTNNIMG

Result:
1: 0.146; 2: -0.484; 3: -0.522; 4: -0.242; 5: -0.213; 6: 0.112
